property: melting point

Cc1nc2cccc(OCC(C)(C)NC(=O)CC3CCOCC3)c2c(N)c1C(=O)O ... 175 to 178 °C
CCC(=O)N1CCC(COc2cccc3nc(C)c(C(=O)O)c(N)c23)CC1 ... 168 to 170 °C
Cc1nc2cccc(OCC(C)(C)NC(=O)CN3CCOCC3)c2c(N)c1C(=O)O ... 173 to 175 °C
CCCCNC(=O)C(C)(C)COc1cccc2nc(C)c(C(=O)O)c(N)c12 ... 195 to 199 °C

Shift focus to the following entry.
Inquiry: For Cc1nc2cccc(OCC(C)(C)NC(=O)C3CCC3)c2c(N)c1C(=O)O , write its melting point.
Reply text: 186 to 190 °C

---

Measured melting point, listed per entry.

// solved cases for melting point follow
Cc1nc2cccc(O[C@H]3CC[C@H](NC(=O)C(C)C)CC3)c2c(N)c1C(=O)O ... 183 to 185 °C
Cc1nc2cccc(OCC(C)(C)NC(=O)C3CCOCC3)c2c(N)c1C(=O)O ... 170 to 173 °C
Cc1nc2cccc(OCC(C)(C)C(=O)NCC3CC3)c2c(N)c1C(=O)O ... 177 to 179 °C
CCC(=O)NC(C)(C)COc1cccc2nc(C)c(C(=O)O)c(N)c12 ... 189 to 193 °C

Shift focus to the following entry.
Inquiry: For CCC(CC)NC(=O)C(C)(C)COc1cccc2nc(C)c(C(=O)O)c(N)c12 , write its melting point.
Reply text: 172 to 174 °C

---

property: melting point

// solved cases for melting point follow
Cc1nc2cccc(OCC(C)(C)C(=O)NC3CCC3)c2c(N)c1C(=O)O [Example 3] ... 183 to 187 °C
Cc1nc2cccc(OCC(C)(C)C(=O)NC3CC3)c2c(N)c1C(=O)O [Example 2] ... 227 to 229 °C
CCNC(=O)C(C)(C)COc1cccc2nc(C)c(C(=O)O)c(N)c12 [Example 12] ... 168 to 170 °C
CNC(=O)[C@H]1CC[C@H](Oc2cccc3nc(C)c(C(=O)O)c(N)c23)CC1 [Example 22] ... 195 to 198 °C
Cc1nc2cccc(OCC(C)(C)NC(=O)CC(C)C)c2c(N)c1C(=O)O [Example 5] ... 195 to 198 °C
Cc1nc2cccc(OCC(C)(C)C(=O)NCC(C)C)c2c(N)c1C(=O)O [Compound C6] ... 176 to 179 °C
Cc1nc2cccc(OC3CCN(C(=O)C(C)C)CC3)c2c(N)c1C(=O)O [Example 10] ... 184 to 186 °C
Cc1nc2cccc(OCC(C)(C)C(=O)NCC3CCC3)c2c(N)c1C(=O)O [Example 19] ... 170 to 172 °C

Shift focus to the following entry.
Inquiry: For Cc1nc2cccc(OCC(C)(C)NC(=O)C(C)C)c2c(N)c1C(=O)O [Example 6] , write its melting point.
Reply text: 184 to 186 °C
